target: Bromodomain-containing protein 9 (Homo sapiens, UniProt Q9H8M2); experiment: Displacement of FAM-labeled BI-FAMb from N-terminal His TEV-tagged human recombinant BRD9 bromodomain expressed in Escherichia coli BL21(DE3) by competitive fluorescence polarization assay
Sequence (Q9H8M2 whole entry): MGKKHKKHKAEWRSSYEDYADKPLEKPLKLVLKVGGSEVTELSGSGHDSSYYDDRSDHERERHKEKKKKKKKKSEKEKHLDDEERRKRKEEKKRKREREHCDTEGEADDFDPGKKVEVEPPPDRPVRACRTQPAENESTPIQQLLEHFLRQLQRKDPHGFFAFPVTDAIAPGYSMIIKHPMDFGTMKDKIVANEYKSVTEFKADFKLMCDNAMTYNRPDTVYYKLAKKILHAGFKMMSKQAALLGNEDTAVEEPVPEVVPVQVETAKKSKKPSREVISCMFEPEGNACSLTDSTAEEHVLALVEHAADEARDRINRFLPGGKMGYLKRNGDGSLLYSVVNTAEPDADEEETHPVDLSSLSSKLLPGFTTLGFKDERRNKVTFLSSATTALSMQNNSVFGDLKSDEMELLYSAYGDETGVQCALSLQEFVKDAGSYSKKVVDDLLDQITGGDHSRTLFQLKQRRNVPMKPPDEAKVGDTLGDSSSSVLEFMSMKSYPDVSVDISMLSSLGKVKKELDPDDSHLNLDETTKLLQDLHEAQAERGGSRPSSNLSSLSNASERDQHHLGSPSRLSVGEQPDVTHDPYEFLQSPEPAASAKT
Each entry below lists one item and its recorded IC50 value.
ENDPOINT_NAME: IC50 (nM)

STRUCTURE_NOTATION	ENDPOINT_NAME	UNITS	INEQUALITY_SIGN	MEASURED
Cc1cc(C)cc(-c2cn(C)c(=O)c3ccccc23)c1	IC50	nM	=	4000
COc1ccc(-c2ccc3c(C)cc(=O)n(C)c3c2)c(OC)n1	IC50	nM	>	300000
COc1ccc(-c2cn(C)c(=O)c3ccccc23)c(OC)n1	IC50	nM	=	1500
COc1ccc(-c2ccc3c(C)cc(=O)n(C)c3c2)c(C)n1	IC50	nM	=	2700
